Just for reference, ChEMBL document CHEMBL3632488 is where these values come from.

Experiment: Antiproliferative activity against human GBM1 cells assessed as reduction in cell viability incubated for 72 hrs by WST-1 method
Format: functional, cell-based
Conditions: GBM1, 72 h
Rule for this label: criterion met means IC50 is less than 3 µM; criterion not met means IC50 is at least 3 µM.

Query: Decide: IC50 of `O=C(Nc1ccc(Cl)c(Cl)c1)Nc1cc2ncncc2cc1OCc1ccccc1Cl` strictly below 3 µM?
Response: criterion met

Query: Decide: IC50 of CC[C@@]1(O)C(=O)OCc2c1cc1n(c2=O)Cc2cc3c(CN(C)C)c(O)ccc3nc2-1 [TOPOTECAN] strictly below 3 µM?
Response: criterion met

Query: Decide: IC50 of `O=C(Nc1ccccc1F)Nc1cc2ncncc2cc1OCc1cccc(Cl)c1` strictly below 3 µM?
Response: criterion not met

Query: Decide: IC50 of `O=C(Nc1cccc(Cl)c1)Nc1cc2ncncc2cc1OCc1cccc(Cl)c1` strictly below 3 µM?
Response: criterion not met

Query: Decide: IC50 of `O=C(Nc1cc2ncncc2cc1OCc1cccc(Cl)c1)Nc1cccc2ccccc12` strictly below 3 µM?
Response: criterion met

Query: Decide: IC50 of CC/C(=C(\c1ccccc1)c1ccc(OCCN(C)C)cc1)c1ccccc1 [TAMOXIFEN] strictly below 3 µM?
Response: criterion not met

Query: Decide: IC50 of `O=C(Nc1ccc(C(F)(F)F)cc1)Nc1cc2ncncc2cc1OCc1cccc(Cl)c1` strictly below 3 µM?
Response: criterion not met

Query: Decide: IC50 of `O=C(Nc1ccc(Cl)c(Cl)c1)Nc1cc2ncncc2cc1OCc1ccccc1F` strictly below 3 µM?
Response: criterion not met

Query: Decide: IC50 of `O=C(Nc1cc2ncncc2cc1OCc1ccccc1Cl)Nc1cccc2ccccc12` strictly below 3 µM?
Response: criterion met

Query: Decide: IC50 of `O=C(Nc1ccccc1F)Nc1cc2ncncc2cc1OCc1ccccc1` strictly below 3 µM?
Response: criterion not met

###

Kindly state Ratio IC50 for each of the entries shown.
Experiment: Selectivity index, ratio of IC50 for normal human astrocytes to IC50 for human GBM1 cells
Give only the figure.

Query: Provide one value: measured Ratio IC50 of `O=C(Nc1ccccc1F)Nc1cc2ncncc2cc1OCc1cccc(Cl)c1`
Response: 1.6

Query: Provide one value: measured Ratio IC50 of `CC[C@@]1(O)C(=O)OCc2c1cc1n(c2=O)Cc2cc3c(CN(C)C)c(O)ccc3nc2-1`
Response: 0.5

Query: Provide one value: measured Ratio IC50 of `O=C(Nc1ccc(Cl)c(Cl)c1)Nc1cc2ncncc2cc1OCc1cccc(F)c1`
Response: 4

###

Kindly state IC50 for each of the entries shown.
Experiment: Antiproliferative activity against human GBM2 cells assessed as reduction in cell viability incubated for 72 hrs by WST-1 method
Format: functional, cell-based
Conditions: GBM2, 72 h
The reply should contain only the number, in µM.

Query: Provide one value: measured IC50 of `O=C(Nc1cc2ncncc2cc1OCc1cccc(Cl)c1)Nc1cccc2ccccc12`
Response: 1.1

Query: Provide one value: measured IC50 of `O=C(Nc1ccccc1F)Nc1cc2ncncc2cc1OCc1ccccc1`
Response: 4.5

Query: Provide one value: measured IC50 of `O=C(Nc1cc2ncncc2cc1OCc1ccccc1Cl)Nc1cccc2ccccc12`
Response: 2.9

Query: Provide one value: measured IC50 of `O=C(Nc1cc2ncncc2cc1OCc1ccc(Cl)cc1)Nc1cccc2ccccc12`
Response: 4.5

Query: Provide one value: measured IC50 of `O=C(Nc1cccc(F)c1)Nc1cc2ncncc2cc1OCc1cccc(Cl)c1`
Response: 7.8

Query: Provide one value: measured IC50 of `O=C(Nc1cccc(F)c1)Nc1cc2ncncc2cc1OCc1ccccc1Cl`
Response: 3.2

Query: Provide one value: measured IC50 of `O=C(Nc1ccccc1F)Nc1cc2ncncc2cc1OCc1cccc(Cl)c1`
Response: 4.4

Query: Provide one value: measured IC50 of `O=C(Nc1cc2ncncc2cc1OCc1cccc(F)c1)Nc1cccc2ccccc12`
Response: 1.4

Query: Provide one value: measured IC50 of `O=C(Nc1cccc(Cl)c1)Nc1cc2ncncc2cc1OCc1cccc(Cl)c1`
Response: 3.5

Query: Provide one value: measured IC50 of CC/C(=C(\c1ccccc1)c1ccc(OCCN(C)C)cc1)c1ccccc1 [TAMOXIFEN]
Response: 3.5

###

Assay: Selectivity index, ratio of IC50 for normal human astrocytes to IC50 for human GBM1 cells
Kindly state Ratio IC50 for each of the entries shown.

Query: Provide one value: measured Ratio IC50 of `O=C(Nc1cc2ncncc2cc1OCc1ccc(Cl)cc1)Nc1cccc2ccccc12`
Response: >1.5

Query: Provide one value: measured Ratio IC50 of `O=C(Nc1cccc(Cl)c1)Nc1cc2ncncc2cc1OCc1cccc(Cl)c1`
Response: >2.9

Query: Provide one value: measured Ratio IC50 of `O=C(Nc1ccc(Cl)c(Cl)c1)Nc1cc2ncncc2cc1OCc1ccccc1Cl`
Response: >7

###

Kindly state Ratio IC50 for each of the entries shown.
Experiment: Selectivity index, ratio of IC50 for normal human astrocytes to IC50 for human GBM1 cells

Query: Provide one value: measured Ratio IC50 of `O=C(Nc1cccc(F)c1)Nc1cc2ncncc2cc1OCc1cccc(Cl)c1`
Response: >1.5

Query: Provide one value: measured Ratio IC50 of `O=C(Nc1cc2ncncc2cc1OCc1cccc(Cl)c1)Nc1cccc2ccccc12`
Response: >10.1

Query: Provide one value: measured Ratio IC50 of `O=C(Nc1ccccc1F)Nc1cc2ncncc2cc1OCc1ccccc1`
Response: >1.8

Query: Provide one value: measured Ratio IC50 of CC/C(=C(\c1ccccc1)c1ccc(OCCN(C)C)cc1)c1ccccc1 [TAMOXIFEN]
Response: >2.1

###

Assay: Antiproliferative activity against human GBM1 cells assessed as reduction in cell viability incubated for 72 hrs by WST-1 method
Type: functional, cell-based
Conditions: GBM1, 72 h
Kindly state IC50 for each of the entries shown.
The reply should contain only the number, in µM.

Query: Provide one value: measured IC50 of `O=C(Nc1cccc(Cl)c1)Nc1cc2ncncc2cc1OCc1ccccc1Cl`
Response: 2.6

Query: Provide one value: measured IC50 of `O=C(Nc1ccc(C(F)(F)F)cc1)Nc1cc2ncncc2cc1OCc1ccccc1`
Response: 5.7

Query: Provide one value: measured IC50 of `O=C(Nc1cccc(F)c1)Nc1cc2ncncc2cc1OCc1cccc(Cl)c1`
Response: 3.7

Query: Provide one value: measured IC50 of `O=C(Nc1cccc(F)c1)Nc1cc2ncncc2cc1OCc1ccccc1Cl`
Response: 4

Query: Provide one value: measured IC50 of `O=C(Nc1cc2ncncc2cc1OCc1cccc(F)c1)Nc1cccc2ccccc12`
Response: 1.3

Query: Provide one value: measured IC50 of `O=C(Nc1ccccc1F)Nc1cc2ncncc2cc1OCc1ccccc1F`
Response: 4.2

Query: Provide one value: measured IC50 of `O=C(Nc1ccc(Cl)c(Cl)c1)Nc1cc2ncncc2cc1OCc1cccc(F)c1`
Response: 2.1

Query: Provide one value: measured IC50 of `O=C(Nc1cc2ncncc2cc1OCc1ccc(F)cc1)Nc1cccc2ccccc12`
Response: 8.1

Query: Provide one value: measured IC50 of `O=C(Nc1cc2ncncc2cc1OCc1ccc(Cl)cc1)Nc1cccc2ccccc12`
Response: 7.9

###

Assay: Selectivity index, ratio of IC50 for normal human astrocytes to IC50 for human GBM1 cells
attribute measured: Ratio IC50

Query: Provide one value: measured Ratio IC50 of `O=C(Nc1cc2ncncc2cc1OCc1cccc(F)c1)Nc1cccc2ccccc12`
Response: >7.7

Query: Provide one value: measured Ratio IC50 of `O=C(Nc1cccc(Cl)c1)Nc1cc2ncncc2cc1OCc1ccccc1Cl`
Response: >4

Query: Provide one value: measured Ratio IC50 of `O=C(Nc1ccccc1F)Nc1cc2ncncc2cc1OCc1cccc(F)c1`
Response: >1.3
